biological target: Protein cereblon/Retinal rod rhodopsin-sensitive cGMP 3',5'-cyclic phosphodiesterase subunit delta (Homo sapiens, UniProt O43924+Q96SW2); assay: PROTAC activity at CRBN/PDEdelta in human PancTu-I assessed as induction of PDEdelta degradation incubated for 24 hrs by immunoblot analysis
Sequence (O43924 whole entry): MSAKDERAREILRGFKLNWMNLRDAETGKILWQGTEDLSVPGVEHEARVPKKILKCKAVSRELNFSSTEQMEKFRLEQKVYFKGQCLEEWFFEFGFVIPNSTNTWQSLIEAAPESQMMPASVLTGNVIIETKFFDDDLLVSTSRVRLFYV
Sequence (Q96SW2 whole entry): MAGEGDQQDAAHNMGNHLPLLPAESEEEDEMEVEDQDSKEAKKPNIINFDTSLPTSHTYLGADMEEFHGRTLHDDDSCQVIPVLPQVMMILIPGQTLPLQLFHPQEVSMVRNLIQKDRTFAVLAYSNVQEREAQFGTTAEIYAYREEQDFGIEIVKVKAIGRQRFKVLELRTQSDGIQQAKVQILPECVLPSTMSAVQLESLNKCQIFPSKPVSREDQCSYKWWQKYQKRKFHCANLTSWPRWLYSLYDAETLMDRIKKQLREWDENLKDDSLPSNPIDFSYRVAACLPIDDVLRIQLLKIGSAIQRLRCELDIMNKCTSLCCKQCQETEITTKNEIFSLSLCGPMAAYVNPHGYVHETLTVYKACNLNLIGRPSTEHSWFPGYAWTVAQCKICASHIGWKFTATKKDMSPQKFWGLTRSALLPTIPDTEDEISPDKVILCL
parameter: pEC50
// scale note: pEC50 = -log10(conc_M); give the bare number

Endpoint output: pEC50 of O=C1CCC(N2C(=O)c3cccc(NCCOCCOCCOCCOCCNC(=O)c4ccc(CN(CC5CCNCC5)S(=O)(=O)c5ccc(S(=O)(=O)N(Cc6ccc(Cl)cc6)C6CCCC6)cc5)cc4)c3C2=O)C(=O)N1 (stereo unspecified) . Value?
7.32
